System: NCI-H226 lung
measurement.protocol: NCI tumour cell line growth inhibition, 48 h
Lab note: anything with TGI at or over 40 µM counts as TRUE; the rest go in FALSE.

{"compound": "CN(C)c1nc(NC23CC4CC(CC(C4)C2)C3)nc(N(C)C)n1", "label.class": "TRUE"}
{"compound": "COc1cc(/C=C2\\CC3C4CC=C5C[C@@H](OC(C)=O)CC[C@]5(C)C4CC[C@]3(C)C2=O)ccc1OCCCn1ccnc1 (some centres not stated)", "label.class": "FALSE"}
{"compound": "NC(=Nc1ccc(O)cc1)S(=O)(=O)O", "label.class": "TRUE"}
{"compound": "C1CSCCCSCCSCCCSC1", "label.class": "TRUE"}
{"compound": "CCCCCCCCCCN(CCCCCCCCCC)CC(=O)c1ccc2cc(Br)c3ccccc3c2c1", "label.class": "FALSE"}
{"compound": "C/C(=N\\NS(=O)(=O)c1ccccc1)c1ccccc1", "label.class": "TRUE"}
{"compound": "CC(C)[C@@H]1CC[C@@H](C)C[C@H]1OC(=O)/C=C1/C2C=CC(O2)C1C(=O)O[C@@H]1C[C@H](C)CC[C@H]1C(C)C (some centres not stated)", "label.class": "TRUE"}
{"compound": "COc1cc2noc(-c3ccccc3)c2cc1OC", "label.class": "TRUE"}
{"compound": "OCCSCc1ccccc1", "label.class": "TRUE"}
{"compound": "O=C1C=C(Br)C(=O)C12CCc1ccccc12 (configuration not stated)", "label.class": "FALSE"}
{"compound": "CCCCCC(=O)c1ccc2[nH]c3c(C)cc([N+](=O)[O-])c(C)c3c2c1", "label.class": "TRUE"}
{"compound": "CC(=O)O[C@H]1CC[C@@]2(C)C(=CC[C@H]3C4=CC=C(C(C)=O)[C@@]4(C)CCC32)C1 (some centres not stated)", "label.class": "TRUE"}
{"compound": "COc1cc(OC)c2c(O)c3c(cc2c1)CC(C)(C)CC3=O", "label.class": "TRUE"}
{"compound": "Cc1c(C(=O)c2ccccc2C(=O)O)c2ccccc2n1C", "label.class": "TRUE"}
{"compound": "Nc1nnc2cc(Cl)ccc2n1", "label.class": "TRUE"}
{"compound": "CCOC(=O)Nc1c(C#N)[n+]([O-])c2cc(Cl)c(Cl)cc2[n+]1[O-]", "label.class": "TRUE"}
{"compound": "O=C(c1ccc2ncc(-c3nc(NC4CC4)ncc3F)n2c1)N1CCOCC1", "label.class": "FALSE"}
{"compound": "NNc1nc2ccccc2c(=O)n1NC(=O)C(=O)Nc1cccc(C(F)(F)F)c1", "label.class": "TRUE"}
{"compound": "N#Cc1c(SCc2ccccc2)nc(-c2ccccc2)[nH]c1=S", "label.class": "TRUE"}
{"compound": "[Se]=P(c1ccccc1)(c1ccccc1)c1ccc(C(c2ccccc2)=P(c2ccccc2)(c2ccccc2)c2ccccc2)cc1", "label.class": "FALSE"}
{"compound": "CN1CCCN(C)C1c1cc([N+](=O)[O-])ccc1O", "label.class": "TRUE"}
{"compound": "COC1=C(N=[N+]=[N-])C(=O)c2ncccc2C1=O", "label.class": "FALSE"}
{"compound": "Nc1ccc(S(=O)(=O)C23CC4CC(CC(C4)C2)C3)cc1", "label.class": "TRUE"}
{"compound": "CCCCNN", "label.class": "TRUE"}

###

Test system: TK-10 renal
measurement.protocol: NCI tumour cell line growth inhibition, 48 h
measured.property: TGI

{"molecule": "COC(=O)C(C)(N=Cc1ccccc1)c1ccccc1 (stereo not drawn)", "measured.property": "TGI", "recorded.measurement": "> 100 µM"}
{"molecule": "CN1c2ccccc2N(C)C2C1N(C)c1ccccc1N2C (stereo not drawn)", "measured.property": "TGI", "recorded.measurement": "> 100 µM"}
{"molecule": "OCCSCc1ccccc1", "measured.property": "TGI", "recorded.measurement": "> 100 µM"}
{"molecule": "Clc1ccc2sc(-n3ccc4ccccc43)nc2c1", "measured.property": "TGI", "recorded.measurement": "> 100 µM"}
{"molecule": "CCCCCC(=O)N[C@@H](c1ccccc1)C(O)C(=O)OC1C[C@@]2(O)C(OC(=O)c3ccccc3)C3[C@](C)(C(=O)[C@H](O)C(=C1C)C2(C)C)C(OC1OCC(O)C(O)C1O)C[C@H]1OC[C@@]31OC(C)=O (stereo partly drawn)", "measured.property": "TGI", "recorded.measurement": "> 100 µM"}
{"molecule": "O=C(Nc1nc2ccccc2n1Cc1ccccc1)NC12CC3CC(CC(C3)C1)C2", "measured.property": "TGI", "recorded.measurement": "> 100 µM"}
{"molecule": "CN1CCCN(C)C1c1cc([N+](=O)[O-])ccc1O", "measured.property": "TGI", "recorded.measurement": "> 100 µM"}
{"molecule": "CC(=O)OCCOCNC(=S)N/N=C(\\C)c1cnc2ccccc2n1", "measured.property": "TGI", "recorded.measurement": "> 100 µM"}

###

List of GI50 tested on UACC-257 melanoma.

{"smiles.representation": "COc1cc2c3c(n(CCCNCCN)c(=O)c2cc1OC)-c1cc2c(cc1C3=O)OCO2", "subject.of.test": "UACC-257 melanoma", "GI50": "1.95 µM"}
{"smiles.representation": "Cc1nc2sc(C(=O)Nc3cccc4ccccc34)c(N)c2cc1C(=O)c1ccccc1", "subject.of.test": "UACC-257 melanoma", "GI50": "> 50 µM"}
{"smiles.representation": "CCOC(=O)c1[nH]c(-c2ccc(Cl)cc2)cc1-c1cccnc1", "subject.of.test": "UACC-257 melanoma", "GI50": "> 100 µM"}

###

Test system: SK-MEL-28 melanoma
measurement.protocol: NCI tumour cell line growth inhibition, 48 h
measured.property: TGI

{"compound": "CCOC(=O)C(CO)c1nc2c([nH]c1=O)c(=O)n(C)c(=O)n2C (stereo unspecified)", "subject.of.test": "SK-MEL-28 melanoma", "recorded.measurement": "> 100 µM"}
{"compound": "CN(C)c1ccc(/C=C2\\N=C(NN)NC2=O)cc1", "subject.of.test": "SK-MEL-28 melanoma", "recorded.measurement": "> 100 µM"}
{"compound": "NC(=O)N/N=C/C(/C=N/NC(N)=O)[N+](=O)[O-]", "subject.of.test": "SK-MEL-28 melanoma", "recorded.measurement": "> 100 µM"}
{"compound": "O=C(Nc1c[nH]c(=O)[nH]c1=O)C(Cl)Cl", "subject.of.test": "SK-MEL-28 melanoma", "recorded.measurement": "> 100 µM"}
{"compound": "COC(=O)C(C)(N=Cc1ccccc1)c1ccccc1 (stereo unspecified)", "subject.of.test": "SK-MEL-28 melanoma", "recorded.measurement": "> 100 µM"}
{"compound": "COc1cc2cc(C(=O)N3C[C@@H](CCl)c4c3cc(N)c3ccccc43)[nH]c2c(OC)c1OC", "subject.of.test": "SK-MEL-28 melanoma", "recorded.measurement": "> 100 µM"}

###

Test system: ACHN renal
measured.property: GI50

{"smiles.representation": "CC1(C)OC(=O)C=C([O-])O1.CC1(C)OC(=O)C=C([O-])O1.O=S(=O)([O-])c1ccc([O-])c2ncccc12.O=S(=O)([O-])c1ccc([O-])c2ncccc12.[Ti+4]", "recorded.measurement": "50300 nM"}
{"smiles.representation": "CCNC(=O)C#CC(=O)NCC", "recorded.measurement": "> 10000 nM"}
{"smiles.representation": "CCOC(=O)c1[nH]c(-c2ccc(Cl)cc2)cc1-c1cccnc1", "recorded.measurement": "714 nM"}
{"smiles.representation": "O=C(c1ccc2ncc(-c3nc(NC4CC4)ncc3F)n2c1)N1CCOCC1", "recorded.measurement": "1560 nM"}

###

System: UACC-257 melanoma
measurement.protocol: NCI tumour cell line growth inhibition, 48 h

{"compound": "CN(C)N1C(=O)c2ccccc2NC1c1ccccc1 (stereo not drawn)", "TGI": "> 100 µM"}
{"compound": "Clc1ccc(Cc2nc3ccc(CCN4CCN(c5ccccc5)CC4)cc3[nH]2)cc1", "TGI": "18.8 µM"}
{"compound": "CN1c2ccccc2N(C)C2C1N(C)c1ccccc1N2C (stereo not drawn)", "TGI": "> 100 µM"}
{"compound": "CCOC(=O)C(=Cc1ccccc1[N+](=O)[O-])C(=O)OCC", "TGI": "14.3 µM"}
{"compound": "CCOC(=O)/C(=C\\c1ccc(N(C)C)cc1)S(=O)(=O)C(F)(F)C(F)(F)C(F)(F)C(F)(F)F", "TGI": "> 100 µM"}
{"compound": "O=C(Nc1c[nH]c(=O)[nH]c1=O)C(Cl)Cl", "TGI": "> 100 µM"}
{"compound": "c1ccc(C2=Nc3nc4ccccc4n3C(c3ccccc3)C2)cc1 (stereo not drawn)", "TGI": "> 100 µM"}
{"compound": "CC(C)(C)NCc1cc(C(C)(C)C)cc(-c2ccc(Cl)cc2)c1O", "TGI": "50.3 µM"}
{"compound": "C1CSCCCSCCSCCCSC1", "TGI": "> 100 µM"}
{"compound": "COc1ccc(C(N)=O)cc1N=NN(C)C", "TGI": "> 100 µM"}
{"compound": "COCCOC(=O)NC(=O)Nc1ccc(/C(=N/O)c2ccc(Cl)cc2)cc1", "TGI": "48.9 µM"}
{"compound": "CCCCCCCC(=O)OC(CBr)COC(=O)C(C)(C)C (stereo not drawn)", "TGI": "> 100 µM"}
{"compound": "O=C(NCCCCCCNC(=O)n1cc(F)c(=O)[nH]c1=O)NCCCOCCOCCCNC(=O)C(O)C(O)C(O)C(O)CO (stereo not drawn)", "TGI": "> 2.5 µM"}
{"compound": "COc1cccc(C(=O)N2CCc3ccccc32)c1OC", "TGI": "> 100 µM"}
{"compound": "OCC1OC(n2ccc3c(NO)ncnc32)C(O)C1O (stereo not drawn)", "TGI": "0.866 µM"}
{"compound": "Nc1ccc2c(c1)NCCN2", "TGI": "> 100 µM"}
{"compound": "CCOC(=O)c1c(Br)c(-c2ccc(Br)cc2)c(Br)n1C", "TGI": "78 µM"}
{"compound": "Cn1c(=O)c2c(nc3n(Cc4ccccc4)c(=O)c(NCCBr)cn23)n(C)c1=O", "TGI": "> 100 µM"}
